Value source: patent US20260216196A1

Kindly supply the reported IC50 values for the records listed here.
- subject-of-test: MLLT3 (Homo sapiens)
- method: HTRF IC50 determination assay, MLLT3 / H3K9cro peptide displacement
- assay-conditions: MLLT3 assay IC50 (nM), 6His tagged MLLT3, biotinylated H3K9cro peptide, compound 20 μM to 20 nM, 11 data points in duplicate

These recorded examples may help you get a feel for the data.
> print(dat)
                                   molecule       subject.of.test  measured.attribute  reported.result
1  CN1CCCC1c1cn2cc(NC(=O)c3ccc4[nH]ccc4c3F)ccc2n1 (racemic)  MLLT3 (Homo sapiens)                IC50   150 to 1500 nM
2  CN1CCCC1c1cn2cc(NC(=O)c3ccc(-c4cncs4)cc3F)ccc2n1 (single isomer, unassigned) [Example 8]  MLLT3 (Homo sapiens)                IC50   150 to 1500 nM

Hey, quick one: what's IC50 for each of these?
1. CN1CC2(CC2)C[C@@H]1c1cn2cc(NC(=O)c3ccc4c(cnn4C)c3)ncc2n1
2. Cc1nc(NC(=O)c2cc3cnc(C)n3cc2F)cn2cc([C@H]3CCCN3C)nc12
3. CC1CC(c2cn3cc(NC(=O)c4ccc5c(cnn5C)c4)ccc3n2)N(C)C1 (racemic)
4. COc1ccc2nc(C(=O)Nc3ccc4nc(C5CCCN5C)cn4c3)sc2c1 (racemic)
5. CN1CCCC1c1cn2cc(NC(=O)c3ccc(-n4cccn4)cc3)ccc2n1 (racemic)
6. Cc1nc(NC(=O)c2cc3cnn(C)c3cc2Cl)cn2cc([C@H]3CCCN3C)nc12
7. Cc1nn(C)c2cc(C(=O)Nc3cn4cc([C@H]5CCCN5C)nc4cn3)ccc12

Return:
150 to 1500 nM
150 to 1500 nM
150 to 1500 nM
1500 to 20000 nM
1500 to 20000 nM
1500 to 20000 nM
150 to 1500 nM

Hey, quick one: what's IC50 for each of these?
1. CN1CCC[C@@H]1c1cn2cc(NC(=O)c3ccc4c(C5CC5)nn(C)c4c3)ncc2n1
2. CN1CC2(CCCC2)CC1c1cn2cc(NC(=O)c3ccc4c(cnn4C)c3)ccc2n1 (racemic)
3. Cc1nn(C)c2cc(C(=O)Nc3cn4cc([C@H]5CCCN5)nc4cn3)ccc12

Return:
1. 150 to 1500 nM
2. 150 to 1500 nM
3. 1500 to 20000 nM

Hey, quick one: what's IC50 for each of these?
1. CN1CCCC1c1cn2cc(NC(=O)c3ccc(-c4ncccn4)cc3F)ccc2n1 (single isomer, unassigned)
2. CN1CCCC1c1cn2cc(NC(=O)c3ccc(-n4cccn4)nc3)ccc2n1 (racemic)
3. CN1CCCC1c1cn2cc(NC(=O)c3ccc4nc[nH]c4n3)ccc2n1 (racemic)

Return:
1: 1500 to 20000 nM; 2: 1500 to 20000 nM; 3: > 20000 nM

Enquiry: Could you share which IC50 value was measured for Cc1nn(C)c2sc(C(=O)Nc3ccc4nc(C5CCCN5C)cn4c3)cc12 (racemic) ?
Return: 1500 to 20000 nM

* * *

- subject-of-test: MLLT3 (Homo sapiens, UniProt P42568)
- Sequence (P42568 whole entry): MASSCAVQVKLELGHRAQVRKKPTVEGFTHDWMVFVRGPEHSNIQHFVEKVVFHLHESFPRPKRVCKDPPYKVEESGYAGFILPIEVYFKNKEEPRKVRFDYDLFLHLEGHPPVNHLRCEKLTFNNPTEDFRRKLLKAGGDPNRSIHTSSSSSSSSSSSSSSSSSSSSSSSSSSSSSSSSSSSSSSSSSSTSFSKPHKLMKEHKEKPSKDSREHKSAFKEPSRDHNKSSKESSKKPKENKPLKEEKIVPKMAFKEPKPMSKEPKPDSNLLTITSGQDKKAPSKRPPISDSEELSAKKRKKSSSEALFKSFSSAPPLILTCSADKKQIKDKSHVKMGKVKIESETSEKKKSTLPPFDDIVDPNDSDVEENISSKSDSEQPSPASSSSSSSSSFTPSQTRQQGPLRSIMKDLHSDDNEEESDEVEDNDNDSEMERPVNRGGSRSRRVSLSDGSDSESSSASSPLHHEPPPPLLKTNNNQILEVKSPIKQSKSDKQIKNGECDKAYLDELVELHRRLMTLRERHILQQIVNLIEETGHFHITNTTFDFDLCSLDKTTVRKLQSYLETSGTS
- method: HTRF IC50 determination assay, MLLT3 / H3K9cro peptide displacement
- assay-conditions: MLLT3 assay IC50 (nM), 6His tagged MLLT3, biotinylated H3K9cro peptide, compound 20 μM to 20 nM, 11 data points in duplicate
measured-attribute: IC50

These recorded examples may help you get a feel for the data.
> print(dat)
                                    compound  measured.attribute   reported.result
 1  CC1CCC(c2cn3cc(NC(=O)c4ccc5c(cnn5C)c4)ccc3n2)N1C (racemic) [Example 63]                IC50  1500 to 20000 nM
 2  CN1CCCC1c1cn2cc(NC(=O)c3cc(-c4cnccn4)ccc3F)ccc2n1 (single isomer, unassigned) [Example 24]                IC50  1500 to 20000 nM
 3  CN1CCCC1c1cn2cc(NC(=O)c3ccc4cc(F)ccc4c3)ccc2n1 (single isomer, unassigned) [Example 6]                IC50  1500 to 20000 nM
 4  Cc1nn(C)c2cc(C(=O)Nc3cn4cc([C@H]5CCCN5C)nc4cn3)c(F)cc12 [Example 73]                IC50    150 to 1500 nM
 5  CN1CCC[C@@H]1c1cn2cc(NC(=O)c3ccc4c(N5CCCCC5)nn(C)c4c3)ncc2n1 [Example 98]                IC50    150 to 1500 nM
 6  COCCN1CCCC1c1cn2cc(NC(=O)c3ccc4c(C)nn(C)c4c3)ccc2n1 (racemic) [Example 62]                IC50  1500 to 20000 nM
 7  Cc1nc(NC(=O)c2cc3c(C)nc(C)n3cc2F)cn2cc([C@H]3CCCN3C)nc12 [Example 94]                IC50    150 to 1500 nM
 8  CN1C[C@H](F)C[C@@H]1c1cn2cc(NC(=O)c3ccc4c(cnn4C)c3)ncc2n1 [Example 105]                IC50    150 to 1500 nM
 9  Cc1nn(C)c2cc(C(=O)Nc3cn4cc(C5CC(C)(C)CN5C)nc4cn3)ccc12 (single isomer, unassigned) [Example 81]                IC50  1500 to 20000 nM
10  Cc1nc(-c2ccc(C(=O)Nc3ccc4nc(C5CCCN5C)cn4c3)cc2)cs1 (racemic) [Example 16]                IC50    150 to 1500 nM

Hey, quick one: what's IC50 for each of these?
1. CN1CCCC1c1cn2cc(NC(=O)c3ccc4c(c3)c(C3CCCC3)nn4C)ccc2n1 (racemic) [Example 48]
2. CN1CCC[C@@H]1c1cn2cc(NC(=O)c3ccc4nnn(C)c4c3)ncc2n1 [Example 97]
3. COCCc1nn(C)c2ccc(C(=O)Nc3ccc4nc(C5CCCN5C)cn4c3)cc12 (racemic) [Example 49]
4. Cc1nn(C)c2cc(C(=O)Nc3ccc4nc(C5CCCN5C)cn4c3)c(F)cc12 (racemic) [Example 30]
5. COc1ccc(-c2nc(C(=O)Nc3ccc4nc(C5CCCN5C)cn4c3)cs2)cc1 (racemic) [Example 38]

Return:
1: 150 to 1500 nM; 2: 150 to 1500 nM; 3: 150 to 1500 nM; 4: 150 to 1500 nM; 5: 1500 to 20000 nM

* * *

- subject-of-test: MLLT3 (Homo sapiens)
- method: HTRF IC50 determination assay, MLLT3 / H3K9cro peptide displacement
- assay-conditions: MLLT3 assay IC50 (nM), 6His tagged MLLT3, biotinylated H3K9cro peptide, compound 20 μM to 20 nM, 11 data points in duplicate
measured-attribute: IC50

These recorded examples may help you get a feel for the data.
> print(dat)
                                   molecule   reported.result
1  Cc1nc2ccc(C(=O)Nc3ccc4nc(C5CCCN5C)cn4c3)cc2nc1C (racemic) [Example 11]    150 to 1500 nM
2  CCC1CC(c2cn3cc(NC(=O)c4ccc5c(C)nn(C)c5c4)ncc3n2)N(C)C1 (single isomer, unassigned) [Example 79]          < 150 nM
3  CN1CCCC1c1cn2cc(NC(=O)c3ccc(-c4cnccn4)cc3F)ccc2n1 (single isomer, unassigned) [Example 19]  1500 to 20000 nM
4  COc1cc2c(cnn2C)cc1C(=O)Nc1cn2cc([C@H]3CCCN3C)nc2cn1 [Example 96]  1500 to 20000 nM
5  CN1CCCC1c1cn2cc(NC(=O)c3ccc(Cn4cccn4)cc3)ccc2n1 (racemic) [Example 42]  1500 to 20000 nM
6  Cc1noc2nc(C(=O)Nc3ccc4nc(C5CCCN5C)cn4c3)ccc12 (racemic) [Example 50]  1500 to 20000 nM

Then this molecule:
Enquiry: Checklist item: IC50 tested on MLLT3 (Homo sapiens), entry CN1CCCC1c1cn2cc(NC(=O)c3ccc4c(cnn4C)c3)ccc2n1 (single isomer, unassigned) [Example 59] , value?
Return: 1500 to 20000 nM

* * *

- subject-of-test: MLLT1 (Homo sapiens, UniProt Q03111)
- Sequence (Q03111 whole entry): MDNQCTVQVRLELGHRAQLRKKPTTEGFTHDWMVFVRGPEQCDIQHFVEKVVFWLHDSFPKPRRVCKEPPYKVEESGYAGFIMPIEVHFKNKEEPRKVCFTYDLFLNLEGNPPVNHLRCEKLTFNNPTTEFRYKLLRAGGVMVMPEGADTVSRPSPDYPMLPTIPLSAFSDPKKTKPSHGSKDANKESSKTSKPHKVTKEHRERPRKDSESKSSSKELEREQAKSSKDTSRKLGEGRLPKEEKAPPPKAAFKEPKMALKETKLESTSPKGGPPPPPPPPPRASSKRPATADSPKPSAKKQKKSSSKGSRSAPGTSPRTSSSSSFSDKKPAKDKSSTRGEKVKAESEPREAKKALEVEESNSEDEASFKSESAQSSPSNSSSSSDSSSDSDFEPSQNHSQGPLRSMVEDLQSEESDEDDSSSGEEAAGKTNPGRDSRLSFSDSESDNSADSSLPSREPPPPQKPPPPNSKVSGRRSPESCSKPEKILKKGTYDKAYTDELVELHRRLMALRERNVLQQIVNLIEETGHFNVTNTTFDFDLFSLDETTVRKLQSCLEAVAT
- method: biochemical
- assay-conditions: MLLT1 assay IC50 (nM), HTRF, 6His tagged MLLT1, biotinylated H3K9cro peptide; compound 20 μM to 20 nM, 11 data points in duplicate
measured-attribute: IC50

These recorded examples may help you get a feel for the data.
> print(dat)
                                   compound  reported.result
1  Cc1nn(C)c2cc(C(=O)Nc3ccc4nc(C5CCCN5C)cn4c3)ccc12 (racemic) [Example 14]   150 to 1500 nM
2  CN1CC2(CCCC2)CC1c1cn2cc(NC(=O)c3ccc4c(cnn4C)c3)ccc2n1 (racemic) [Example 3]   150 to 1500 nM

Hey, quick one: what's IC50 for each of these?
1. CN1CCCC1c1cn2cc(NC(=O)c3cn4ccncc4n3)ccc2n1 (racemic) [Example 34]
2. CN1CCCC1c1cn2cc(NC(=O)c3ccc4ncccc4n3)ccc2n1 (racemic) [Example 10]
3. Cc1nn(C)c2cc(C(=O)Nc3cn4cc(C5CC(C)(C)CN5C)nc4cn3)ccc12 (single isomer, unassigned) [Example 81]
4. CN1CCCC1c1cn2cc(NC(=O)c3ccc4nc[nH]c4n3)ccc2n1 (racemic) [Example 36]

Return:
1. 1500 to 20000 nM
2. 1500 to 20000 nM
3. 1500 to 20000 nM
4. 1500 to 20000 nM
